Data provenance: PubChem BioAssay (NCI)

system: LOX IMVI melanoma; assay: NCI tumour cell line growth inhibition, 48 h
MEASURED_ATTRIBUTE: GI50

Quick note, GI50 for NC(=O)c1cc(-c2ccc(F)cc2)cc(-c2ccncc2)c1N landed at > 25 µM

Quick note, GI50 for CC[C@@H](C(=O)[C@@H](C)[C@@H](O)[C@H](C)[C@@H]1O[C@@H]([C@@H](CC)C(=O)N(CC)CC)CC[C@@H]1C)C1O[C@]2(C=CC(=O)[C@]3(CC[C@@](C)([C@H]4CC[C@](O)(CC)[C@H](C)O4)O3)O2)[C@H](C)C[C@@H]1C (stereo partly specified) landed at 1.58 µM

Quick note, GI50 for COc1cc(O)c(C(=O)/C=C/c2ccc(O)cc2)c(O)c1[C@@H]1C[C@H](CCc2ccc(O)cc2)O[C@H](c2ccc(O)cc2)C1 landed at 2.93 µM

Quick note, GI50 for COc1cc(C2=C(C#Cc3ccccc3)COC2=O)cc(OC)c1OC landed at 0.738 µM

Quick note, GI50 for COc1cc2c(cc1C)NC(=O)/C2=C\c1cccc(Oc2ccccc2)c1 landed at 12.9 µM

Quick note, GI50 for COc1ccc(-c2nc3ccccn3c2/C=C/C(=O)c2cc(OC)c(OC)c(OC)c2)cc1 landed at 6.05 µM

----------
Task for the reader: assign each of the following compounds its reported TGI.
test system: HCC-2998 colon; assay: NCI tumour cell line growth inhibition, 48 h

Quick note, TGI for N=c1c2c(-c3ccccc3)c[nH]c2ncn1N landed at > 100 µM

Quick note, TGI for O=C1/C(=C/c2ccc(Cl)cc2)N=C(c2ccccc2)N1CCc1cccs1 landed at > 100 µM

Quick note, TGI for O=C(Nc1nc2ncn(CCNCc3ccccc3)c2c(=O)[nH]1)c1ccccc1 landed at > 100 µM

Quick note, TGI for O=C1CCC(=O)N1n1c(Cc2ccc(Cl)cc2)n[nH]c1=O landed at > 100 µM

Quick note, TGI for COc1ccc(/C=c2\sc3n(c2=O)C(N)=C(C#N)C(c2ccc(OC)cc2)C=3c2nc3ccccc3[nH]2)cc1 (stereo not given) landed at 64.3 µM

Quick note, TGI for Cc1c2cnccc2c(C)c2c1c1ccccc1n2CCCCCCNCc1ccccc1 landed at 4.86 µM

Quick note, TGI for CCc1cccc(C(C)C)c1NC(=O)C(=O)C(CC(=O)Nc1ccc(Cl)c(Cl)c1)C(=O)OC (stereo not given) landed at > 100 µM

Quick note, TGI for O=C1[C@@H]2[C@@H](c3ccccc3)[C@]2(Cl)C(=O)[C@H]2[C@H](c3ccccc3)[C@@]12Cl landed at > 100 µM

Quick note, TGI for CCCCN1C(=O)c2c(-c3sccc3N)sc(-c3sccc3N)c2C1=O landed at > 100 µM

Quick note, TGI for COc1cc(Nc2ccnc(NCCCNc3ccnc4cc(Cl)ccc34)n2)cc(OC)c1 landed at 3.36 µM

Quick note, TGI for N#C/C(=C\NC(=S)c1ccncc1)c1nc2ccccc2s1 landed at > 100 µM

Quick note, TGI for N#CCCC1(CCC#N)CCCCCCCCC(CCC#N)(CCC#N)C(=O)C1=O landed at > 100 µM

Quick note, TGI for COc1ccc(Cn2cc3c(c2-c2ccc(OC)cc2)CCc2cnoc2-3)cc1 landed at 5.92 µM

Quick note, TGI for O=C(Cc1nc2ccccc2s1)Nc1cccc(C(F)(F)F)c1 landed at 29.4 µM

Quick note, TGI for CCSc1cc(=O)n(C)c(=O)n1C landed at > 100 µM

Quick note, TGI for O=c1[nH]c(Nc2cc(Cl)cc(Cl)c2)nc2nc[nH]c12 landed at > 75 µM

Quick note, TGI for CC1(CCCO)CCCCCCCCCC(C)(CCCO)C1=O (stereo not given) landed at > 100 µM

Quick note, TGI for O=C/C=C/c1ccco1 landed at > 100 µM

Quick note, TGI for Cc1cccc2c(=O)c3c(sc12)c(NCCNCCO)nc1ccccc13 landed at 3.11 µM

Quick note, TGI for CNC(=O)N(C)COC landed at > 100 µM

Quick note, TGI for CCOC(=O)C(Cl)(NC(=O)c1c(F)c(F)c(F)c(F)c1F)C(F)(F)F (stereo not given) landed at > 100 µM

Quick note, TGI for COC(=O)C1=C(O)C(C(=O)OC)[C@]2(O)[C@H](C(=O)OC)[C@H]1C[C@@H](c1c(Cl)cccc1Cl)[C@H]2C(=O)OC (stereo not given in full) landed at 3.03 µM

Quick note, TGI for COc1cc(/C=C/C(=O)c2ccc(NC(=O)CN3CCN(c4cc5c(cc4F)c(=O)c(C(=O)O)cn5C4CC4)CC3)cc2)cc(OC)c1OC landed at 14.1 µM

Quick note, TGI for COCOc1c(C(O[Si](C)(C)C(C)(C)C)c2cnc(Sc3ccccc3)n2C)ccc(OC)c1OC (stereo not given) landed at 3.7 µM

Quick note, TGI for C=C1CC/C=C(\C)C(=O)C[C@@H]2[C@@H]1CC2(C)C landed at 12.7 µM

Quick note, TGI for COc1cc(OC)c(C2CC=Cc3c(OC)cc(OC)c(OC)c32)cc1OC (stereo not given) landed at > 100 µM

Quick note, TGI for COc1ccc2c(c1)n([O-])c1ccccc1[n+]2=O landed at > 100 µM

Quick note, TGI for Cc1cc(Cc2c(F)c(F)c(C(c3cc(C)no3)c3c(F)c(F)c(F)c(F)c3F)c(F)c2F)on1 (stereo not given) landed at > 100 µM

Quick note, TGI for Cn1ccnc1C(=O)/C=C/c1ccccc1 landed at 5.38 µM

Quick note, TGI for Cc1ccc(S(=O)(=O)OCC23CCC(CC2)C2CC23)cc1 (stereo not given) landed at > 100 µM

----------
system: OVCAR-4 ovarian; assay: NCI tumour cell line growth inhibition, 48 h
MEASURED_ATTRIBUTE: TGI

Observed TGI on OVCAR-4 ovarian, entry O=C(/C=C/c1cc(O)c(O)cc1O)OCCc1ccccc1 , equals 31.8 µM

Observed TGI on OVCAR-4 ovarian, entry c1csc(-c2cc(-c3cccs3)c(-c3cccs3)s2)c1 , equals > 100 µM

Observed TGI on OVCAR-4 ovarian, entry CC(=O)O[C@@H]1C2=C(C)C=C(O2)[C@H]2O[C@]2(C)C[C@H]2C=C(C(=O)O2)[C@H](OC(C)=O)CC1[C@@]1(C)CO1 (stereo not given in full) , equals > 100 µM

Observed TGI on OVCAR-4 ovarian, entry COc1ccc(Nc2c3ccccc3nc3ccccc23)cc1 , equals 15 µM

Observed TGI on OVCAR-4 ovarian, entry COC(=O)C1=C(C)NC(C)=C(C(=O)OC)C1/C=C(Cl)/C=C/c1ccccc1 , equals > 100 µM

Observed TGI on OVCAR-4 ovarian, entry CO/N=C(\C)COc1ccc2c(=O)c(-c3ccccc3)coc2c1 , equals > 100 µM

Observed TGI on OVCAR-4 ovarian, entry CCCCCCCCCCCCOP(=O)(O)OCC(N)C(=O)O (stereo not given) , equals > 100 µM

Observed TGI on OVCAR-4 ovarian, entry COc1cc(C2=C(C#Cc3ccccc3)COC2=O)cc(OC)c1OC , equals > 100 µM

Observed TGI on OVCAR-4 ovarian, entry COc1cc(/C=C/C(=O)c2c(C)nc3ccccc3c2C)ccc1OCCCOc1cc2c(cc1OC)C(=O)N1CCC[C@H]1C=N2 , equals 31.5 µM

Observed TGI on OVCAR-4 ovarian, entry N#CCCC1(CCC#N)CCCCCCCCC(CCC#N)(CCC#N)C(=O)C1=O , equals > 100 µM

----------
system: NCI/ADR-RES ovarian; test: NCI tumour cell line growth inhibition, 48 h
Task for the reader: assign each of the following compounds its reported GI50.

Quick note, GI50 for CCCCCCCCCCCC1CCCC(C)N1 (stereo not drawn) landed at 11.9 µM

Quick note, GI50 for Cn1ccnc1C(=O)/C=C/c1ccccc1 landed at 3.11 µM

Quick note, GI50 for O=C(NCc1ccc(Cn2c(=O)sn(-c3ccccc3)c2=O)cc1)OCc1ccc2c(Br)cc(Br)c(O)c2n1 landed at 1.2 µM

Quick note, GI50 for COc1cc(/C=C/C(=O)c2ccc(NC(=O)CN3CCN(c4cc5c(cc4F)c(=O)c(C(=O)O)cn5C4CC4)CC3)cc2)cc(OC)c1OC landed at > 75.9 µM

Quick note, GI50 for COc1ccc(-c2nc3ccccn3c2/C=C/C(=O)c2cc(OC)c(OC)c(OC)c2)cc1 landed at 3.36 µM

Quick note, GI50 for CC1(C)[C@@H](O[C@@H]2OC[C@@H](O[C@@H]3O[C@H](CO)[C@@H](O)[C@H](O)[C@H]3O[C@@H]3OC[C@@H](O)[C@H](O)[C@H]3O)[C@H](O)[C@H]2O[C@@H]2O[C@H](CO)[C@@H](O)[C@H](O)[C@H]2O)CC[C@]2(C)[C@H]3CC[C@]45OC[C@@]6(CC[C@](C)(C=O)C[C@H]64)[C@H](O)C[C@@]5(C)[C@]3(C)CC[C@@H]12 landed at 1.24 µM

Quick note, GI50 for N#Cc1c(N)nc(N2CCOCC2)c(C#N)c1-c1cccnc1 landed at 81.7 µM

Quick note, GI50 for C=C1CCC2C(C)(C)CCC[C@]2(C)[C@H]1CO (stereo partly drawn) landed at 60.3 µM

Quick note, GI50 for CN1CCN(c2ccc3nc(-c4ccc5nc(-c6ccc(OCCC(C)(C)C)cc6)[nH]c5c4)[nH]c3c2)CC1 landed at 35.7 µM

Quick note, GI50 for CCN(C(=O)c1cc(F)ccc1Oc1cncnc1N1CC2(CCN(CC3CCC(NS(=O)(=O)CC)CC3)CC2)C1)C(C)C (stereo not drawn) landed at > 100 µM

Quick note, GI50 for COc1cc(C2=C(C#Cc3ccccc3)COC2=O)cc(OC)c1OC landed at 5.43 µM

Quick note, GI50 for O=C1/C(=C/c2ccc(Cl)cc2)N=C(c2ccccc2)N1CCc1cccs1 landed at 23.7 µM

Quick note, GI50 for C[C@@H](CO)[C@@H]1CCC=C2CC[C@]3(C)[C@H](CC[C@@H]4[C@@]5(C)CCCNC(C)(C)[C@@H]5CC[C@]43C)[C@H]21 landed at 2.05 µM
